Tested on: A549
experiment: Growth inhibition of human A549 cells by MTT assay
Type: cell-based
particulars: a549
Each record here notes measured GI90.
experimental-endpoint: GI90

structure_smiles_string=Cc1nc(-c2ccccc2)oc1-c1csc(Cc2cccc(Cl)c2)n1 experimental_endpoint=GI90 experimental_result="> 250 µg/mL"
structure_smiles_string=Cc1nc(-c2ccc(F)cc2)oc1-c1csc(Cc2cccc(Cl)c2)n1 experimental_endpoint=GI90 experimental_result="> 250 µg/mL"
structure_smiles_string=CO[C@H]1/C=C/O[C@@]2(C)Oc3c(C)c(O)c4c(O)c(c(/C=N/N5CCN(C)CC5)c(O)c4c3C2=O)NC(=O)/C(C)=C\C=C\[C@H](C)[C@H](O)[C@@H](C)[C@@H](O)[C@@H](C)[C@H](OC(C)=O)[C@@H]1C experimental_endpoint=GI90 experimental_result="> 100 µg/mL"
structure_smiles_string=Cc1nc(-c2ccc(F)cc2)oc1-c1csc(Cc2ccccc2)n1 experimental_endpoint=GI90 experimental_result="> 250 µg/mL"
structure_smiles_string=Cc1nc(-c2ccccc2)oc1-c1csc(Cc2ccc(Cl)cc2)n1 experimental_endpoint=GI90 experimental_result="> 250 µg/mL"
structure_smiles_string=Cc1nc(-c2ccccc2)oc1-c1csc(-c2ccccc2)n1 experimental_endpoint=GI90 experimental_result="> 250 µg/mL"
structure_smiles_string=Cc1nc(-c2ccc(F)cc2)oc1-c1csc(Cc2ccc(F)cc2)n1 experimental_endpoint=GI90 experimental_result="> 250 µg/mL"
structure_smiles_string=CC(=O)O[C@H]1C(=O)[C@@]2(C)[C@H]([C@H](OC(=O)c3ccccc3)[C@]3(O)C[C@H](OC(=O)[C@H](O)[C@@H](NC(=O)c4ccccc4)c4ccccc4)C(C)=C1C3(C)C)[C@]1(OC(C)=O)CO[C@@H]1C[C@@H]2O experimental_endpoint=GI90 experimental_result="0.0706 µg/mL"

====

experiment: Selectivity index, ratio of GI50 for human PANC1 cells to MIC for Mycobacterium bovis BCG ATCC 35743 dormant stage
Format: toxicity
particulars: PANC-1 cells, read-out: Selectivity Index
Listed here are compounds together with their documented selectivity ratio.
experimental-endpoint: selectivity ratio

structure_smiles_string=Cc1nc(-c2ccccc2)oc1-c1csc(Cc2ccc(Cl)cc2)n1 experimental_result=117
structure_smiles_string=Cc1nc(-c2ccccc2)oc1-c1csc(Cc2cccc(Cl)c2)n1 experimental_result=181
structure_smiles_string=Cc1nc(-c2ccccc2)oc1-c1csc(-c2ccccc2)n1 experimental_result=9
structure_smiles_string=Cc1nc(-c2ccc(F)cc2)oc1-c1csc(Cc2cccc(Cl)c2)n1 experimental_result=104
structure_smiles_string=Cc1nc(-c2ccc(F)cc2)oc1-c1csc(Cc2ccc(F)cc2)n1 experimental_result=385
structure_smiles_string=Cc1nc(-c2ccc(F)cc2)oc1-c1csc(Cc2ccccc2)n1 experimental_result=97

====

experiment: Selectivity index, ratio of GI50 for human HeLa cells to MIC for Mycobacterium tuberculosis H37Ra ATCC 25177 dormant stage
Assay type: toxicity, cell-based
particulars: read-out: Selectivity Index
experimental-endpoint: selectivity ratio

structure_smiles_string=Cc1nc(-c2ccc(F)cc2)oc1-c1csc(Cc2cccc(Cl)c2)n1 experimental_endpoint="selectivity ratio" experimental_result=59
structure_smiles_string=Cc1nc(-c2ccc(F)cc2)oc1-c1csc(Cc2ccccc2)n1 experimental_endpoint="selectivity ratio" experimental_result=68
structure_smiles_string=Cc1nc(-c2ccc(F)cc2)oc1-c1csc(Cc2ccc(F)cc2)n1 experimental_endpoint="selectivity ratio" experimental_result=148
structure_smiles_string=Cc1nc(-c2ccccc2)oc1-c1csc(-c2ccccc2)n1 experimental_endpoint="selectivity ratio" experimental_result=4
structure_smiles_string=Cc1nc(-c2ccccc2)oc1-c1csc(Cc2ccc(Cl)cc2)n1 experimental_endpoint="selectivity ratio" experimental_result=47
structure_smiles_string=Cc1nc(-c2ccccc2)oc1-c1csc(Cc2cccc(Cl)c2)n1 experimental_endpoint="selectivity ratio" experimental_result=54
